assaySystem: Recombinant human his-tagged IGF 1R extracellular domain protein (human) (UniProt P08069)
assayName: SPR, captured IgG, IGF-1R ECD-his analyte, dissociation pH 6
// kon lookup, one value per entry
Enter your answer as a number in M⁻¹ s⁻¹; do not include the unit.

>  <binder>
VRDN-02535 (antibody, V domains shown) VH: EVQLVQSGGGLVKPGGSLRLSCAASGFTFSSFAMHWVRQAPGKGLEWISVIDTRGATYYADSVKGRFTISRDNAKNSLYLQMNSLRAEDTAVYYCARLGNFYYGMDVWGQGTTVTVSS VL: EIVLTQSPGTLSVSPGERATLSCRASQSIGHSLHWYQQKPGQAPRLLIKYASQSLSGIPDRFSGSGSGTDFTLTISRLEPEDFAVYYCHQSSRLPHTFGQGTKVEIK

>  <measurementName>
kon

>  <number>
36600

$$$$
>  <binder>
VRDN-02565 (antibody, V domains shown) VH: EVQLVQSGGGLVKPGGSLRLSCAASGFTFSSFAMHWVRQAPGKGLEWISVIDTRGATYYADSVKGRFTISRDNAKNSLYLQMNSLRAEDTAVYYCHRLGNFYYHMDVWGQGTTVTVSS VL: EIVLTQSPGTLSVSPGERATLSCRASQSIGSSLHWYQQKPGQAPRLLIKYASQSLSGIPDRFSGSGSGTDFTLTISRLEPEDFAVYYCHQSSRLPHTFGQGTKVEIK

>  <measurementName>
kon

>  <number>
3.43e+06

$$$$
>  <binder>
VRDN-02564 (antibody, V domains shown) VH: EVQLVQSGGGLVKPGGSLRLSCAASGFTFSSFAMHWVRQAPGKGLEWISVIHTRGATYYADSVKGRFTISRDNAKNSLYLQMNSLRAEDTAVYYCARLGNFYYGHDVWGQGTTVTVSS VL: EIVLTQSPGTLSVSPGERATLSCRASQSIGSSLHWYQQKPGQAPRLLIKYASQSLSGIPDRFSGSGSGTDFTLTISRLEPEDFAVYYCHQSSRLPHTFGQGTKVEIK

>  <measurementName>
kon

>  <number>
344000

$$$$
>  <binder>
VRDN-02545 (antibody, V domains shown) VH: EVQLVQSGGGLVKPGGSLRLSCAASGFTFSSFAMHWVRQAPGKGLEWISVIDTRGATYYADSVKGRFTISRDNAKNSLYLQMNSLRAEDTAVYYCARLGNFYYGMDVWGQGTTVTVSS VL: EIVLTQSPGTLSVSPGERATLSCRASQSIGSSLHWYQQKPGQAPRLLIKYASQSLHGIPDRFSGSGSGTDFTLTISRLEPEDFAVYYCHQSSRLPHTFGQGTKVEIK

>  <measurementName>
kon

>  <number>
37000

$$$$

Turning to the following binder.
Field kon (entry VRDN-02517 (antibody, V domains shown) VH: EVQLVQSGGGLVKPGGSLRLSCAASGFTFSSFAMHWVRQAPGKGLEWISVIDTRGATYYADSVKGRFTISRDNAKNSLYLQMNSLRAEDTAVYYCAHLGNFYYGMDVWGQGTTVTVSS VL: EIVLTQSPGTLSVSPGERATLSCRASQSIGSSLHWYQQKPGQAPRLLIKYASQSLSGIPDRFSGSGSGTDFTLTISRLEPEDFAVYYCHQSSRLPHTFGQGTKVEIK ) reads 52300
